# Measurement Description: anti-His antibody binders, primary screen, artefact control for SMM control protein annotation, biochemical, small-molecule microarray, 635 nm fluorescence (AID 1128);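 further: score merges feature fluorescence with signal-to-noise for each printed compound spot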
# Test Conditions: anti-His Alexa647 antibody binding, higher = more signal
Listing of entries alongside the reported composite z-score.
The response must contain the number and no unit.

Study these solved cases before continuing.
molecule=[N-]=[N+]=Nc1ccccc1C[C@@]1(C(=O)NCCN2CCOCC2)N=C(c2ccc(OCCCO)cc2)O[C@@H]1c1ccccc1 endpoint_value=0.76
molecule=COCCOC(=O)N1C(=O)[C@@]2(c3cc(C#Cc4ccc(OC)cc4)ccc31)[C@H](c1ccc(O)cc1)N1[C@H](c3ccccc3)[C@H](c3ccccc3)OC(=O)[C@H]1[C@@H]2C(=O)NC[C@H](O)c1ccccc1 endpoint_value=0.522
molecule=COc1ccc([C@H]2OC[C@@H]3CC4(CC=CC4)C(=O)N32)cc1 endpoint_value=-0.648

Q) composite z-score for CC(C)C(CO)N1C(=O)[C@@H]2[C@H]3C(=O)OCC=C[C@H]3OC23C=CCN(C(C)C)C(=O)[C@@H]13 (some centres undefined) ?
A) 0.443

* * *

# Measurement Description: E. coli growth modulation, two-sided OD650, primary screen, E. coli filamentation project, strain DRC41, 24 h (AID 1093);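 further: MC1000 strain lacking acrAB efflux and sulA so SOS filamentation is blocked; test concentration not given here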
# Test Conditions: OD650, 24 h, higher = more signal, called active from +8 up or from −8 down
Metric Name: z-score
Output spec: single numeric token, no unit.

These solved cases illustrate the format of a correct answer.
compound="COc1ccc(C(O)C2C=CC3C(=O)NC(=O)C3N2Nc2ccccn2)c2ccccc12 (centres undefined)" endpoint_value=-0.794
compound=C[N+](C)(C)CCCC[C@@H]1NC(=O)[C@@H]2C[C@H](C(=O)NCCCCCN)[C@H](c3cccc(OCCO)c3)N2C1=O endpoint_value=-0.291
compound=COC(=O)[C@@]1(Cc2ccc(OC)cc2)[C@H]2c3cc(C(=O)N(C)C)n(CCN4CNCC4=O)c3C[C@H]2CN1C(=O)c1ccccc1 endpoint_value=0.288

Q) z-score lookup needed for COCCOC(=O)N1C(=O)[C@@]2(c3cc(C#CC4=CCCCC4)ccc31)[C@H](C(=O)Nc1nc3ccccc3s1)[C@H]1C(=O)O[C@H](c3ccccc3)[C@H](c3ccccc3)N1[C@@H]2c1ccc(OCCO)cc1 , thanks.
A) 0.373

* * *

This listing pairs molecules with measured composite z-score.
# Target Or System: Fibroblast growth factor 10 (Homo sapiens)
# Measurement Description: FGF10 binders on small-molecule microarrays, primary screen, biochemical, small-molecule microarray, 635 nm fluorescence (AID 1102)
# Test Conditions: FGF10 binding, fluorescence 635 nm, higher = more signal
Number only, please.

Field: example entries. Status: answers known.
molecule=O=C1c2ccccc2[C@](Cc2ccccc2I)(C(=O)NC2CC2)[C@H](c2ccc(CO)cc2)N1C1CCCCC1 metric_name="composite z-score" endpoint_value=0.724
molecule=O=C1c2ccccc2[C@@]2(Cc3ccccc3N(CCN3CCOCC3)C2=O)[C@H](c2ccc(CO)cc2)N1Cc1ccccc1 metric_name="composite z-score" endpoint_value=-0.667
molecule="CCCCC(O)C1C=CC2C(=O)N(c3ccccc3)C(=O)C2N1Nc1ccccc1F (centres undefined)" metric_name="composite z-score" endpoint_value=0.857

Q) Fill blank: measured composite z-score of the molecule COC(=O)[C@@]1(Cc2ccccc2)[C@H]2c3cc(C(=O)N4CCCC4)n(Cc4cccc5ccccc45)c3C[C@H]2CN1C(=O)c1ccccc1 is ____.
A) 0.664
